Below, each entry is listed alongside its reported composite z-score.
Assay: small molecules captured by biotinylated probe aFGF2 – biochemical, small-molecule microarray, fluorescence 635/667, stem cell growth factor project, primary screen (AID 1067);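 also: measures binding of biotinylated aFGF2 protein to printed compounds on slides; z-score merges feature fluorescence and signal-to-noise across triplicate slides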
Conditions: higher = more signal
// response body must contain only the number

Consider the following illustrative entries.
1) CC(=O)NCCCC[C@@H]1NC(=O)[C@H]2C[C@@H](C(=O)NCCCCCN)[C@@H](c3cccc(OCCO)c3)N2C1=O: 0.0661
2) CCCC[C@@H](O)C1=C(COc2ccccc2)Cn2c(=O)n(-c3ccccc3)c(=O)n2[C@H]1CO: -0.118

Now examine the next entry.
Look up composite z-score for this compound: CC[C@@H]1[C@@H]2C3C(=O)N(CC)C(=O)C3CC(=O)[C@@H]2[C@H](c2ccc(C)cc2)N1S(=O)(=O)c1ccc(C)cc1 (stereo partly drawn)
0.161
